# Test system: NCI-H460
# measurementProtocol: Anticancer activity against human NCI-H460 cells assessed as cell growth promotion at 10^-5 M after 48 hrs by SRB assay relative to control
# Format: functional
assayEndpoint: Activity
Don't forget the unit after the number, please.

compound N#Cc1ccc(/C=C/c2ccc(NC(=O)c3ccccc3NC(=O)c3ccco3)cc2)cc1 , Activity observed: 116%

compound COc1ccc(OC)c(/C=C/c2nc3ccccc3nc2SCc2nc3ccccc3[nH]2)c1 , Activity observed: 94.48%

compound O=C(O)c1ccc(-n2c(-c3ccco3)nc3ccccc3c2=O)cc1 , Activity observed: 95.38%

compound O=C(Nc1ccccc1C(=O)Nc1ccc(/C=C/c2ccc(Cl)cc2)cc1)c1ccccc1 , Activity observed: 72.92%

compound COc1cc(/C=C/c2ccc(NC(=O)c3ccccc3NC(=O)c3ccccc3)cc2)ccc1O , Activity observed: 107%

compound C(=C\c1nc2ccccc2nc1SCc1nc2ccccc2[nH]1)/c1ccccc1 , Activity observed: 70.22%

compound O=C(Nc1ccccc1C(=O)Nc1ccc(/C=C/c2ccc(Cl)cc2)cc1)c1ccco1 , Activity observed: 107%

compound O=c1c2ccccc2nc(-c2ccco2)n1O , Activity observed: 108.52%

compound Oc1ccccc1/C=C/c1nc2ccccc2nc1SCc1nc2ccccc2[nH]1 , Activity observed: 80.34%

compound N#Cc1ccc(/C=C/c2nc3ccccc3nc2SCc2nc3ccccc3[nH]2)cc1 , Activity observed: 104%

compound CN(C)c1ccc(/C=C/c2nc3ccccc3nc2SCc2nc3ccccc3[nH]2)cc1 , Activity observed: 104%

compound O=c1c2ccccc2nc(-c2ccco2)n1/N=C/c1ccccc1Cl , Activity observed: 28.38%

compound NS(=O)(=O)c1ccc(NC(=O)c2ccccc2NC(=O)c2ccco2)cc1 , Activity observed: 115.5%

compound O=C(Nc1ccccc1C(=O)Nc1ccc(/C=C/C=C/c2ccccc2)cc1)c1ccccc1 , Activity observed: 94.36%

compound O=C(Nc1ccccc1C(=O)Nc1ccc(/C=C/c2ccc(O)cc2)cc1)c1ccccc1 , Activity observed: 92.1%

compound Oc1ccc(/C=C/c2nc3ccccc3nc2SCc2nc3ccccc3[nH]2)cc1 , Activity observed: 95.51%
